Biological target: ED-tagged human SIRPα V1 receptor on Jurkat signaling reporter cells (human, UniProt P78324 31-504)
Assay: cell-based or functional assay
reported_metric: Blockade of Cellular CD47-Mediated SIRPα Signaling; IC50
Don't forget the unit after the value.

binder: Antibody A4 (antibody, human IgG1, kappa, L234A L235A, V domains shown) VH: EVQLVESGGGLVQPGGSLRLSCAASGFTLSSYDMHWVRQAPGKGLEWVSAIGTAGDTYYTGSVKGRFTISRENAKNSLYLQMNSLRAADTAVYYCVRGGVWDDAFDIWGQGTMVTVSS VL: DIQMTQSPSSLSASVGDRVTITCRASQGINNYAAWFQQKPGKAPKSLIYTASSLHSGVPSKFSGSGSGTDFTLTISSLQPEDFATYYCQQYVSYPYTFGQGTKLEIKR
observed: 0.04 nM
//
binder: Antibody D (antibody, human IgG1, kappa, L234A L235A, V domains shown) VH: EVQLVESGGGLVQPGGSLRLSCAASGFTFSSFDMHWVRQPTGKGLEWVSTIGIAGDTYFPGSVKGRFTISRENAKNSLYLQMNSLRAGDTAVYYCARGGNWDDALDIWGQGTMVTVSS VL: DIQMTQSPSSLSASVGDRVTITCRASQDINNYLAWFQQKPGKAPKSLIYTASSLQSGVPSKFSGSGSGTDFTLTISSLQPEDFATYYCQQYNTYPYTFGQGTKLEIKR
observed: 0.04 nM
//
binder: Antibody B (antibody, human IgG1, kappa, L234A L235A, V domains shown) VH: QVQLVQSGAEVKKPGASVKVSCKASGYTFTGNYMHWVRQAPGQGLEWMGWINPNSGGTNYAQKFQGRVTMTRDTSISTAYMELSRLRSDDTAVYYCVSGSGWYENYYYYGMDVWGQGTTVTVSS VL: DIQMTQSPSSVSASVGDRVTITCRASQGISSWLAWYQQKPGKAPKLLIYAESSLQSGVPSRFSGSGSGTDFTLTISSLQPEDFATYYCQQANSFPLTFGGGTKVEIKR
observed: 0.76 nM
//
binder: Antibody C (antibody, human IgG1, kappa, L234A L235A, V domains shown) VH: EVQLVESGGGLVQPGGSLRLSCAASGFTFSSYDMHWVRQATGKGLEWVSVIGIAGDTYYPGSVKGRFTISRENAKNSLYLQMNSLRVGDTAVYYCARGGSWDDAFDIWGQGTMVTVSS VL: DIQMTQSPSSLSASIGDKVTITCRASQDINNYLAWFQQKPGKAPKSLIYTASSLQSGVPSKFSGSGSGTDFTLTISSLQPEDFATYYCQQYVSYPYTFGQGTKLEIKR
observed: 0.04 nM

# next binder below
Q: Look up and state reported Blockade of Cellular CD47-Mediated SIRPα Signaling; IC50 for Antibody E22 (antibody, human IgG1, kappa, L234A L235A, V domains shown) VH: QVQLQESGPGLVKPSETLSLTCTVSGGSIRDYYWSWIRQPPGKGLEWIGFIYYNGRTFYQSSLKSRVTISLDTSKNQFSLKMTSVTAADTAVYYCARVRAYSGIGLDGTDVWGQGTTVTVSS VL: DIVMTQSPLSLPVTPGEPASISCRSSQSLLYSTGYTYLDWYLQRPGQSPQLLIYGGSSRASGVPDRFSGSGSGTDFTLKISRVEAEDVGVFYCGQALQTPLTFGQGTKVEIKR
Result: 0.07 nM
